- test_summary: soluble on expression in E. coli; label from the status in PepcDB or PDB records
reported_property: soluble on expression in E. coli

MGRIFLDHIGGTRLFSCANCDTILTNRSELISTRFTGATGRAFLFNKVVNLQYSEVQDRVMLTGRHMVRDVSCKNCNSKLGWIYEFATEDSQRYKEGRVILERALVRESEGFEEHVPSDNS; soluble
MRVAIALAKDDATRVYPGPFGHAPRYAIYEAGPSGELVLLEIRENPYAKAHGEEKHAKMRELLRDVDLKVGARFGHKGSLGAFPLADRVEVGPVSLEEALARLKERSSA; soluble
MAHHHHHHMENIKLGFMGLGQMGSALAHGIANANIIKKENLFYYGPSKKNTTLNYMSSNEELARHCDIIVCAVKPDIAGSVLNNIKPYLSSKLLISICGGLNIGKLEEMVGSENKIVWVMPNTPCLVGEGSFIYCSNKNVNSTDKKYVNDIFNSCGIIHEIKEKDMDIATAISGCGPAYVYLFIESLIDAGVKNGLSRELSKNLVLQTIKGSVEMVKKSDQPVQQLKDNIVSPGGITAVGLYSLEKNSFKYTVMNAVEAACEKSKAMGSK; soluble

* * *

- test_summary: soluble on expression in E. coli; label from the status in PepcDB or PDB records
reported_property: soluble on expression in E. coli

MAIMRVNPTRMELTRLKKRLQVARRGHKLLKDKLDELMKQFLDLVRKNKELREKVEEMLMKAHQDFLIARAVMSSEGLEAALMLPKQSISLDVSTQNIMSVEVPVLKFTTSSSDESDIYPYGFASTSGELDGAILTLSKVLPYMLELAQMEKSSQLLAQEIEKTRRRVNALEYVMIPQLTETIKYISMKLDENERGNITRLMKVKDMMLEQAHNFKEKLNEA; soluble
MNKRDYMNTSVQEPPLDYSFRSIHVIQDLVNEEPRTGLRPLKRSKSGKSLTQSLWLNNNVLNDLRDFNQVASQLLEHPENLAWIDLSFNDLTSIDPVLTTFFNLSVLYLHGNSIQRLGEVNKLAVLPRLRSLTLHGNPMEEEKGYRQYVLCTLSRITTFDFSGVTKADRTTAEVWKRMNIKPKKAWTKQNTL; soluble

* * *

- test_summary: soluble on expression in E. coli; label from the status in PepcDB or PDB records
reported_property: soluble on expression in E. coli

MFGGIENVKAAEPKVYQFDFGSGSMEPGYIGVRASDRYDRSKGYGFQTPENMRDVAASGAGVKSDAVEFLAYGTKSNNTFNVDLPNGLYEVKVTLGNTARASVAAEGVFQVINMTGDGAEDTFQIPVTDGQLNLLVTEGKAGTAFTLSALKIKKLSDQPVTNRTIYVGGDSTVCNYYPLNSSKQAGWGQMLPHYIDKHTFQVRNMASGGQIARGFRNDGQLEAILKYIKPGDYFMLQLGINDTNPKHKESEAEFKEVMRDMIRQVKAKGADVILSTPQGRATDFTSEGIHSSVNRWYRASILALAEEEKTYLIDLNVLSSAYFTSIGPERTLGLYMDGDTLHPNRAGADALARLAVQELKRQGIAGFLEHHHHHH; soluble
MSLIRMALAAVCALLFSITTMTPFVQASEITISGSTSVARIMDVLAEKYNQQHPETYVAVQGVGSTAGISLLKKGVADIAMTSRYLTESEAQNTLHTFTLAFDGLAIVVNQANPVTNLTREQLYGIYKGQITNWKQVGGNDQKIAVVTREASSGTRYSFESLMGLTKTVKDREVSDVAPTALVVNSNSMMKTLVNHNTQAVGFISIGSVDKSVKAIQFEKADPTSDNIAKHTYQLSRPFLILHYSDNADEQTKEFIAFLKSESAKKLIVEYGYIMPSDVEEGGSHHHHHH; soluble
